Tested on: RXF 393 renal
Assay: NCI tumour cell line growth inhibition, 48 h
quantityKind: TGI

{"compound": "Cc1cc(O)c(C2=NN(c3ccc(S(N)(=O)=O)cc3)C(c3ccc(N(C)C)cc3)C2)c(C)c1Cl (configuration not stated)", "TGI": "59.1 µM"}
{"compound": "O=C(Nc1cccc(Cc2cccc(NC(=O)c3ccccc3)c2)c1)c1ccccc1", "TGI": "46.6 µM"}
{"compound": "COc1ccc(/C=C2\\CC(C)CC3C2=NN(C(C)=O)C3c2ccc(OC)cc2)cc1 (configuration not stated)", "TGI": "> 100 µM"}
{"compound": "CN(CCO)c1nc(N)cc(=O)[nH]1", "TGI": "> 100 µM"}
{"compound": "Cc1ccc2c(c1)C(=O)N1CCC[C@H]1C=N2", "TGI": "16.1 µM"}

Query: Value wanted: TGI (RXF 393 renal) of entry CC(C)(C)c1cc2c(O)c(c1)Cc1cc(C(C#N)(Cc3ccc4ccccc4c3)Cc3ccc4ccccc4c3)cc(c1O)Cc1cc(C(C)(C)C)cc(c1O)Cc1cc(C(C#N)(Cc3ccc4ccccc4c3)Cc3ccc4ccccc4c3)cc(c1O)C2
Reply: > 100 µM

Query: Value wanted: TGI (RXF 393 renal) of entry Clc1ccccc1C1=NN(c2ccccc2)C2c3ccccc3OCC12 (configuration not stated)
Reply: > 100 µM

Query: Value wanted: TGI (RXF 393 renal) of entry O=C(Cc1nc2ccccc2s1)C(=O)Nc1cccc(Cl)c1
Reply: > 100 µM

Query: Value wanted: TGI (RXF 393 renal) of entry CN1CCCCC(C#N)(c2ccccc2)CC1 (configuration not stated)
Reply: > 100 µM
